Tested on: SK-MEL-5 melanoma
Test: NCI tumour cell line growth inhibition, 48 h; in the data active means GI50 below about 0.43 µM; inactive means the rest
Outcome codes: 1 = active, 0 = inactive

| Cpd Smiles | Assay System | Class |
| --- | --- | --- |
| COc1ccc2sc(NC(=O)CCCCCCNC(=O)C(O)(O)C(F)(F)F)nc2c1 | SK-MEL-5 melanoma | 0 |
| O=C(Nc1cc(Cl)cc(Cl)c1)Nc1nc2ccc([N+](=O)[O-])cc2s1 | SK-MEL-5 melanoma | 0 |
| O=C(Nc1cccc(-c2nc(-c3ccc(NC(=O)c4cccnc4)cc3Cl)no2)c1)Nc1ccc(NC(=O)C2CC2)c(C(F)(F)F)c1 | SK-MEL-5 melanoma | 1 |
| IP(CCCSc1n(Cc2ccc3ccccc3c2)c(-c2ccccc2)c(-c2ccccc2)[n+]1Cc1ccc2ccccc2c1)(c1ccccc1)(c1ccccc1)c1ccccc1 | SK-MEL-5 melanoma | 0 |
